experimental-system: human GPCR sphingosine 1-phosphate receptor 2 (Homo sapiens)
Construct: host or cells: CHO
Sequence (O95136 whole entry): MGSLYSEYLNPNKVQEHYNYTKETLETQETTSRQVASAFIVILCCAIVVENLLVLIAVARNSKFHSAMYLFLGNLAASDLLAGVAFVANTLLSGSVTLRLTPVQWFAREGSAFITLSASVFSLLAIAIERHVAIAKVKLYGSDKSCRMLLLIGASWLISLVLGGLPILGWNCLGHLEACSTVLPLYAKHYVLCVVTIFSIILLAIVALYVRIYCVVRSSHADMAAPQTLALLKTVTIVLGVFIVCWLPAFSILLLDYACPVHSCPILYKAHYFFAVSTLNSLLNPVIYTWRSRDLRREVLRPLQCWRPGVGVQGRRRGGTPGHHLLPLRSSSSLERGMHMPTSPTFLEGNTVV
protocol-details: S1PR2 antagonist Ca2+ flux assay
Type: cell-based
particulars: antagonist mode, CHO-S1PR2 cells, S1P at EC80, Ca2+ fluorescence; read-out: S1P2 EC50 (nM), S1P2 antagonist EC50
attribute-measured: EC50 (nM)

Some compounds with known EC50 results, for comparison:
compound: CC1(C)CCN(C(=O)Cn2nc(Cc3nc4cc(OCC(F)F)c(C#N)cc4[nH]3)c3ccccc3c2=O)CC1
experimental-system: human GPCR sphingosine 1-phosphate receptor 2 (Homo sapiens)
attribute-measured: EC50
unit-spec: nM
result-value: 13
--
compound: N#Cc1cc2[nH]c(Cc3nn(CC(=O)O)c(=O)c4ccccc34)nc2cc1OCC1CC1
experimental-system: human GPCR sphingosine 1-phosphate receptor 2 (Homo sapiens)
attribute-measured: EC50
unit-spec: nM
result-value: 8.26
--
compound: O=c1c2ccccc2c(Cc2nc3cc(Cl)c(OC(F)(F)F)cc3[nH]2)nn1C1CCNC1 (stereo not drawn)
experimental-system: human GPCR sphingosine 1-phosphate receptor 2 (Homo sapiens)
attribute-measured: EC50
unit-spec: nM
result-value: 94.4
--
compound: O=C(O)Cc1nn(Cc2cn3cc(OCC4CC4)c(Cl)cc3n2)c2c(c1=O)CCCC2
experimental-system: human GPCR sphingosine 1-phosphate receptor 2 (Homo sapiens)
attribute-measured: EC50
unit-spec: nM
result-value: 3.02

I. O=c1c2ccccc2c(Cc2nc3cc(Cl)c(OC(F)(F)F)cc3[nH]2)nn1CC1CCCNC1 (stereo not drawn)
II. CC(C(=O)O)n1nc(Cc2nc3cc(OCC4CC4)c(Cl)cc3[nH]2)c2ccccc2c1=O (stereo not drawn)
input: Which of these two has the smaller recorded EC50: I or II ? Reply with the label of the item you choose.
output: II
(II: 13.6 nM, I: 890 nM)

a. N#Cc1ccc2c(=O)n(CC(=O)O)nc(Cc3nc4cc(Cl)c(OCC(F)F)cc4[nH]3)c2c1
b. CC(C(=O)O)c1nn(Cc2cn3cc(OCC4CC4)c(C(F)(F)F)cc3n2)c2ccccc2c1=O (stereo not drawn)
c. CCS(=O)(=O)C1CCN(C(=O)Cn2nc(Cc3nc4cc(OCC(F)F)c(C#N)cc4[nH]3)c3ccccc3c2=O)CC1
input: Please list the entries, largest EC50 first. Could you list the labels in the order requested?
output: c, a, b

P. CCOc1cc2cn(Cc3nn(CC(=O)O)c(=O)c4ccccc34)nc2cc1Br
Q. N#Cc1cc2nc(Cc3nn(CC(=O)N4CCC(F)(F)CC4)c(=O)c4c3CCCC4)[nH]c2cc1OCC(F)F
R. CCOc1cc2nc(Cc3nn(CC(=O)NS(C)(=O)=O)c(=O)c4ccccc34)[nH]c2cc1F
S. O=C(Cn1nc(Cn2cc3cc(OCC4CC4)c(Cl)cc3n2)c2ccccc2c1=O)N[C@H]1CCC[C@@H]1O
T. O=C(Cn1nc(Cc2nc3cc(Cl)c(OCC4CC4)cc3[nH]2)c2ccccc2c1=O)N1CCOCC1
input: Please list the entries, largest EC50 first. Could you list the labels in the order requested?
output: R, Q, P, S, T
(R: 87.9 nM, Q: 30.4 nM, P: 21 nM, S: 13.8 nM, T: 9.34 nM)

====

experimental-system: S1PR2 (Homo sapiens)
Construct: expressed in transfected cells
Sequence (O95136 whole entry): as above
protocol-details: S1PR2 binding assay (competition with radioactively labeled S1P, SpA)
particulars: membranes from stable cell line over expressing S1PR2, SpA beads; read-out: S1P2 EC50 (nM), S1PR2 binding EC50
attribute-measured: EC50 (nM)

compound: CCOc1cc2[nH]c(Cc3nn(CC(=O)N4CCOCC4)c(=O)c4ccccc34)nc2cc1C(F)(F)F [Compound 168]
experimental-system: S1PR2 (Homo sapiens)
EC50 [nM]: 86.4
--
compound: O=C(O)Cn1nc(Cc2nc3cc(OCC(F)F)c(F)cc3[nH]2)c2ccccc2c1=O [Compound 130]
experimental-system: S1PR2 (Homo sapiens)
EC50 [nM]: 2500
--
compound: COCCOc1cc2[nH]c(Cc3nn(CC(=O)N4CCOCC4)c(=O)c4ccccc34)nc2cc1Cl [Compound 174]
experimental-system: S1PR2 (Homo sapiens)
EC50 [nM]: 56.8
--
compound: O=C(Cn1nc(Cc2nc3cc(OC(F)(F)F)c(Cl)cc3[nH]2)c2ccccc2c1=O)N1CCOCC1 [Compound 142]
experimental-system: S1PR2 (Homo sapiens)
EC50 [nM]: 103
--
compound: O=C(O)Cc1nn(Cc2cn3cc(OCC4CC4)c(Cl)cc3n2)c2cc(F)ccc2c1=O [Compound 101]
experimental-system: S1PR2 (Homo sapiens)
EC50 [nM]: 33.2

1. CN(CC1CCCO1)C(=O)Cn1nc(Cc2nc3cc(OCC(F)F)c(C#N)cc3[nH]2)c2ccccc2c1=O (stereo not drawn) [Compound 180]
2. N#Cc1cc2nc(Cc3nn(CC(=O)N4CCC[C@H]4CO)c(=O)c4ccccc34)[nH]c2cc1OCC(F)F [Compound 198]
input: 1 or 2 : whose EC50 is greater? Reply with the label of the item you choose.
output: 2

Data credit: patent US20210315893A1
